test: Cytotoxicity against human UACC62 cell line; format: cell-based; settings: UACC-62 cells
Label key: Fulfilled means GI50 under 7 µM; Not fulfilled means GI50 of 7 µM or more.

For orientation, consider the following solved cases.
{"columns": ["mol", "group"],
 "data": [
  ["COc1cc2c(c(OC)c1OC)C(=O)c1c-2n(CCCN=[N+]=[N-])c(=O)c2cc([N+](=O)[O-])ccc12", "Not fulfilled"],
  ["COc1cc2c(c(OC)c1OC)-c1c(c3ccc([N+](=O)[O-])cc3c(=O)n1CCCN)C2=O", "Not fulfilled"],
  ["COc1ccc2c(c1)C(=O)c1c-2n(CCCN)c(=O)c2cc([N+](=O)[O-])ccc12", "Fulfilled"],
  ["COc1cc2c(cc1OC)-c1c(c3ccc([N+](=O)[O-])cc3c(=O)n1CCCN=[N+]=[N-])C2=O", "Not fulfilled"],
  ["COc1cccc2c1-c1c(c3ccc([N+](=O)[O-])cc3c(=O)n1CCCCl)C2=O", "Fulfilled"]
]}

# TODO verify GI50 < 7 µM strictly for this compound: COc1cc2c(c(OC)c1OC)C(=O)c1c-2n(CCCN)c(=O)c2cc([N+](=O)[O-])ccc12
Fulfilled

# TODO verify GI50 < 7 µM strictly for this compound: COc1cc2c(cc1OC)-c1c(c3ccc([N+](=O)[O-])cc3c(=O)n1CCCN)C2=O
Fulfilled

###

test: Cytotoxicity against human HOP62 cell line; type: cell-based; conditions: HOP-62 cells
Criterion: GI50 strictly less than 5 µM. Met: t. Not met: f.

Example entries begin here.
{"columns": ["molecule", "group"],
 "data": [
  ["COc1cc2c(c(OC)c1OC)-c1c(c3ccc([N+](=O)[O-])cc3c(=O)n1CCCN=[N+]=[N-])C2=O", "f"],
  ["COc1cc2c(c(OC)c1OC)-c1c(c3ccc([N+](=O)[O-])cc3c(=O)n1CCCBr)C2=O", "f"],
  ["COc1cc2c(cc1OC)-c1c(c3ccc([N+](=O)[O-])cc3c(=O)n1CCCN)C2=O", "t"],
  ["COc1ccc2c(c1)C(=O)c1c-2n(CCCN)c(=O)c2cc([N+](=O)[O-])ccc12", "t"],
  ["COc1ccc2c(c1)C(=O)c1c-2n(CCCCl)c(=O)c2cc([N+](=O)[O-])ccc12", "t"]
]}

Say whether its GI50 is strictly beneath 5 µM. Entry: COc1cc2c(c(OC)c1OC)C(=O)[C@@H]1c3ccc([N+](=O)[O-])cc3C(=O)N(CCCBr)[C@H]21 (relative stereo)
t

Could you please tell me whether GI50 recorded for COc1cc2c(c(OC)c1OC)C(=O)c1c-2n(CCCN)c(=O)c2cc([N+](=O)[O-])ccc12 is less than 5 µM?
t

A record lists COc1ccc2c(c1OC)-c1c(c3ccc([N+](=O)[O-])cc3c(=O)n1CCCN)C2=O . Is its GI50 below 5 µM?
f

Please determine if COc1cccc2c1-c1c(c3ccc([N+](=O)[O-])cc3c(=O)n1CCCCl)C2=O is below 5 µM in terms of GI50.
f

###

assay: Cytotoxicity against human MDA-MB-435 cell line; type: cell-based; settings: MDA-MB-435 cells
Give GI50 for every item shown.

Some compounds with known GI50 results, for comparison:
{"columns": ["compound", "GI50"],
 "data": [
  ["COc1cc2c(c(OC)c1OC)C(=O)c1c-2n(CCCN=[N+]=[N-])c(=O)c2cc([N+](=O)[O-])ccc12", "> 100 µM"],
  ["COc1cc2c(c(OC)c1OC)-c1c(c3ccc([N+](=O)[O-])cc3c(=O)n1CCCN=[N+]=[N-])C2=O", "> 100 µM"],
  ["COc1cc2c(c(OC)c1OC)-c1c(c3ccc([N+](=O)[O-])cc3c(=O)n1CCCBr)C2=O", "> 100 µM"],
  ["COc1cc2c(cc1OC)-c1c(c3ccc([N+](=O)[O-])cc3c(=O)n1CCCN=[N+]=[N-])C2=O", "> 100 µM"]
]}

Now consider the entry below.
Which GI50 reading was recorded for the compound COc1cc2c(c(OC)c1OC)C(=O)[C@@H]1c3ccc([N+](=O)[O-])cc3C(=O)N(CCCBr)[C@H]21 (relative stereo) ?
< 0.01 µM
